- system-name: SIRT1 (Homo sapiens, UniProt Q96EB6)
- Sequence (Q96EB6 whole entry): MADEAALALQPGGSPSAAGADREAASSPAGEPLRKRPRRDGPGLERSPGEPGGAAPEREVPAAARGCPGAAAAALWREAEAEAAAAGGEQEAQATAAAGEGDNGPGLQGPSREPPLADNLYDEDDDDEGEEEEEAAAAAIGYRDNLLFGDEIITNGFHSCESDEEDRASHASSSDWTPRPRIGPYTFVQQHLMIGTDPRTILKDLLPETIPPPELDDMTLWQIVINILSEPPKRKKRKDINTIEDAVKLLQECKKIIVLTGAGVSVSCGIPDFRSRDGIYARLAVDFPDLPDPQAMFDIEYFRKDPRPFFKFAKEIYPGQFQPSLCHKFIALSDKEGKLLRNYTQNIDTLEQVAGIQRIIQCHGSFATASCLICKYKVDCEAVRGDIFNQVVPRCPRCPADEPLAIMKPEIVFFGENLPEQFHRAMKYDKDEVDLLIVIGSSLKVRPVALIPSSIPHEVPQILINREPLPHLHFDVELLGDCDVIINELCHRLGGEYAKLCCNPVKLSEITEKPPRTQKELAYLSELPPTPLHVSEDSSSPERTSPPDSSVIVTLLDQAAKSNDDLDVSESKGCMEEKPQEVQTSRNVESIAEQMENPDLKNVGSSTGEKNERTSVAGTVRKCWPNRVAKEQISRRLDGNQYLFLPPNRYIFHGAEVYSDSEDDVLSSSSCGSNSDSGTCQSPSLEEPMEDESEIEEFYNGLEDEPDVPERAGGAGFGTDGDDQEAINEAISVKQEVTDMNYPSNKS
- assay-info: TAMRA based mass spectrometry assay of SIRT1 activity
- Type: biochemical
- assay-setup: TAMRA assay; percent maximum fold activation; read-out: TAMRA % Fold Act
# Emax listing for each entry below

Ask: Fill in reported Emax for this entry: O=C(Nc1cnc2ccc(-c3ccccc3Cl)nn12)c1cscn1
Result: ≥ 350%

Ask: Identify measured Emax corresponding to COc1ccc(NC(=O)c2c(C)nc3ccc(-c4cccc(C)c4)nn23)nn1
Result: < 350%

Ask: Output measured Emax for this item: Cc1ccc(NC(=O)c2cnn3ccc(-c4ccccc4OC(F)(F)F)nc23)cn1
Result: ≥ 350%

Ask: Let me know recorded Emax for Cc1cc(C)nc(NC(=O)c2cnc3c(C)c(C)c(-c4ccccc4C(F)(F)F)nn23)c1 , thanks.
Result: ≥ 350%

Ask: Please list Emax recorded for the compound Cc1nc2ccc(-c3ccccc3C(F)(F)F)nn2c1C(=O)Nc1nccc(N2CCCC2)n1
Result: ≥ 350%

Ask: Please supply the value of reported Emax for the item Cc1nc(C(=O)Nc2cnc3ccc(-c4ccccc4OC(F)(F)F)nn23)c(C)s1
Result: ≥ 350%

Ask: Name the recorded Emax of the item N#Cc1ccccc1-c1ccc2ncc(NC(=O)c3ncccn3)n2n1 in your answer.
Result: ≥ 350%
